targetEntity: NbALFAPE
assayDetails: SPR; ligand TST-NEDD8-ALFA
readoutName: pKd
Give bare numbers, as −log10 of the molar value.

Fill in: pKd of SRLEEELRRRLTE (other) [ALFA-tagged target immobilized for SPR (TST-NEDD8-ALFA or GFP-ALFA)] is ___
7.96

FYI, the data here is from paper PMC6764986.
